Target: human IL13 (human, UniProt P35225 35-146, biotinylated in the SPR assays (sites not given))
Sequence (P35225 other isoform, or with tags, fused parts or gaps limits assumed): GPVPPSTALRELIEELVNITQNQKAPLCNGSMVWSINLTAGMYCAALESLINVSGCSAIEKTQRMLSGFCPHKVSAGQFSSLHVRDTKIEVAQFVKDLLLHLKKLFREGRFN
Assay: cell-based or functional assay
PROPERTY LABEL: A549/TARC IL13 IC50 (nM)
Express the result in nM but write the number alone.

BINDER | A549/TARC IL13 IC50 (nM)
C06_28E5_V1_C01_6G9_V1 (designed binder, bispecific IL4/IL13 ankyrin repeat protein with (GGGGS)4 linker; also called bispecific AR protein) DLGKKLLEAARAGQDDEVRILMANGADVNAADDSGITPLHLAAEDGHLEIVEVLLKAGADVNAQDNLGDTPLHLAAWTGHLEIVEVLLKAGADVNAYDISGITPLHLAAFYGHLEIVEVLLKHGADVNAQDKFGKTAFDISIDNGNEDLAEILQKLNGGGGSGGGGSGGGGSGGGGSDLDKKLLEAARAGQDDEVRILMANGADVNARDSYGSTPLHLAAREGHLEIVEVLLKYGADVNAADFIGDTPLHLAAYRGHLEIVEVLLKYGADVNASDITGETPLHLAAQIGHLEIVEVLLKHGADVNAQDKFGKTAFDISIDNGNEDLAEILQKLN | 0.084

// next item, A549/TARC IL13 IC50 requested
// C06_53G6_V1_C01_6G9_V1 (designed binder, bispecific IL4/IL13 ankyrin repeat protein with (GGGGS)4 linker; also called bispecific AR protein) DLGKKLLEAARAGQDDEVRILMANGADVNATDDWGDTLLHLAATDGHLEIVEVLLKAGADVNANDAIGDTPLHLAALYGHLEIVEVLLKYGADVNATDLHGFTPLHLAAFWGHLEIVEVLLKHGADVNAQDKFGKTAFDISIDNGNEDLAEILQKLNGGGGSGGGGSGGGGSGGGGSDLDKKLLEAARAGQDDEVRILMANGADVNARDSYGSTPLHLAAREGHLEIVEVLLKYGADVNAADFIGDTPLHLAAYRGHLEIVEVLLKYGADVNASDITGETPLHLAAQIGHLEIVEVLLKHGADVNAQDKFGKTAFDISIDNGNEDLAEILQKLN : A549/TARC IL13 IC50 value = 0.131
